Sourced from paper PMC10702835

System: Okp1‐Ame1
Test: GST pulldown, Okp1-Ame1
Assay type: binding, Saccharomyces cerevisiae
Details: glutathione agarose, 4°C, 1 h, 20 mM Tris, pH 8.5, 200 mM NaCl, 1 mM TCEP; SDS-PAGE
Description: Figure 3 Biochemical investigation of Okp1‐Ame1‐Cse4^END binding and disruptive point mutations • A GST pulldown assay for Cse4 binding. The indicated COMA complex proteins were tested for their association with immobilized GST‐Cse4^END. • B Fluorescence polarization assay for quantification of Cse4 binding affinities (n = 3 independent replicates). FITC‐labeled Cse4^END peptide was incubated with increasing concentrations of the indicated protein complexes. […]
Where no end group is shown, it is not given here.

substance: cse4‐L41D: Cse4^END L41D mutant, GST fusion (GST-TEV-Cse4^28-60(L41D)) (AGDQQSINDRALSDLQRTRATKNLFPRREERRR; not fully specified (N-terminus))
assay_target: Okp1‐Ame1
binding in GST pulldown: failed to bind
//
substance: cse4‐L41,42A: Cse4^END L41,42A mutant, GST fusion (AGDQQSINDRALSAAQRTRATKNLFPRREERRR; not fully specified (N-terminus))
assay_target: Okp1‐Ame1
binding in GST pulldown: failed to bind
//
substance: cse4‐L42D: Cse4^END L42D mutant, GST fusion (GST-TEV-Cse4^28-60(L42D)) (AGDQQSINDRALSLDQRTRATKNLFPRREERRR; not fully specified (N-terminus))
assay_target: Okp1‐Ame1
binding in GST pulldown: failed to bind
